FYI, the data here is from ChEMBL document CHEMBL1201862.

- Test system: OVCAR-8
- test name: NCI tumour cell line growth inhibition, 48 h
Active and inactive are the calls of the source. Cut-off read from the data, not from the text of the source: active = GI50 up to about 1.1 µM and inactive = higher.
In this exercise, the only acceptable responses are T for active, F for inactive

The following compounds have reported results that may help.
{"compound": "Clc1cccc(/C=N/C23CC4CC(CC(C4)C2)C3)c1Cl", "answer label": "F"}
{"compound": "CC#Cc1c(O)c2c(c(O)c1C#CC)C(=O)c1ccccc1C2=O", "answer label": "F"}
{"compound": "O=C1CCC2CCOc3ccc(O)c1c32 (stereo unspecified)", "answer label": "F"}

// query Lab log entry: CCc1cc(C)cc2[n+]1CC=C2.[O-][Cl+3]([O-])([O-])[O-] — outcome as called in the assay?
// result F

// query Lab log entry: O=[N+]([O-])C1Cc2ccccc2OC1c1ccccc1 (stereo unspecified) — outcome as called in the assay?
// result F
